- Test system: S. aureus ATCC 29213
- Assay type: cell-based, Staphylococcus aureus
- stated.conditions: ATCC 29213, 18 h
Non-standard residues stand in square brackets, D forms with d. Residues, ends and D or L forms follow the SMILES beside them. Gly(Nα-4-Cl-benzyl) = O=C(O)CNCc1ccc(Cl)cc1; Nphe = O=C(O)CNCc1ccccc1; Nlys = NCCCCNCC(=O)O
measurement.label: Minimal inhibitory concentration SA^b (µg/mL)
Number only, in µg/mL; omit the unit.

molecule: NCCCCNCC(=O)N(CC(=O)N(CCCCN)CC(=O)N(CC(=O)N(CCCCN)CC(=O)N(CC(=O)N(CCCCN)CC(=O)N(CC(N)=O)Cc1ccc(Cl)cc1)Cc1ccccc1)Cc1ccc(Cl)cc1)Cc1ccccc1 [Compound 16] (H-[Nlys][Nphe][Nlys][Gly(Nα-4-Cl-benzyl)][Nlys][Nphe][Nlys][Gly(Nα-4-Cl-benzyl)]-NH2)
tested.target: S. aureus ATCC 29213
units.text: µg/mL
endpoint.result: 64

Now for a further molecule.
q: Identify measured Minimal inhibitory concentration SA^b corresponding to NCCCCNCC(=O)N(CC(=O)N(CCCCN)CC(=O)N(CC(=O)N(CCCCN)CC(=O)N(CC(=O)N(CCCCN)CC(=O)N(CC(=O)N(CCCCN)CC(=O)N(CC(=O)N(CCCCN)CC(=O)N(CC(N)=O)Cc1ccc(Cl)cc1)Cc1ccc(Cl)cc1)Cc1ccc(Cl)cc1)Cc1ccc(Cl)cc1)Cc1ccc(Cl)cc1)Cc1ccc(Cl)cc1 [Compound 30] (H-[Nlys][Gly(Nα-4-Cl-benzyl)][Nlys][Gly(Nα-4-Cl-benzyl)][Nlys][Gly(Nα-4-Cl-benzyl)][Nlys][Gly(Nα-4-Cl-benzyl)][Nlys][Gly(Nα-4-Cl-benzyl)][Nlys][Gly(Nα-4-Cl-benzyl)]-NH2)
a: 2

The values you see were collected from paper PMC7481290.
